assay: xn = mol fraction of the nth substance listed; details: 298.15 K; 100.5 kPa; Liquid; x1 = 0.65
measuredMetric: mass density (kg/m3)
Only the number, expressed in kg/m3, is required.

I am curious: what mass density value has been reported for CC(=O)OCc1ccccc1 [benzyl ethanoate] + CCO ?
1003.92

I am curious: what mass density value has been reported for COC(=O)c1ccccc1 [methyl benzoate] + CCO ?
1025.44

I am curious: what mass density value has been reported for CCOC(=O)CC(C)C [ethyl 3-methylbutanoate] + CCO ?
846.06

I am curious: what mass density value has been reported for CCOC(=O)c1ccccc1O [ethyl 2-hydroxybenzoate] + CCO ?
1066.53

I am curious: what mass density value has been reported for CCC(=O)OCc1ccccc1 [benzyl propanoate] + CCO ?
988.61

I am curious: what mass density value has been reported for CCOC(=O)CC(C)=O [ethyl 3-oxobutanoate] + CCO ?
976.13

---

Below is a list of entries, each paired with its recorded mass density value.
assay: xn = mol fraction of the nth substance listed; conditions: 308.15 K; 100.5 kPa; Liquid; x1 = 0.5
Only the number, expressed in kg/m3, is required.

I am curious: what mass density value has been reported for CCC(=O)OCc1ccccc1 [benzyl propanoate] + CCO ?
954.79

I am curious: what mass density value has been reported for CCOC(=O)CC(C)=O [ethyl 3-oxobutanoate] + CCO ?
938.29

I am curious: what mass density value has been reported for CCOC(=O)c1ccccc1O [ethyl 2-hydroxybenzoate] + CCO ?
1020.8

---

Below is a list of entries, each paired with its recorded mass density value.
test: xn = mol fraction of the nth substance listed; conditions: 308.15 K; 100.5 kPa; Liquid; x1 = 0.25
Only the number, expressed in kg/m3, is required.

As a guide, the following entries are already answered.
I am curious: what mass density value has been reported for CCC(=O)OCc1ccccc1 [benzyl propanoate] + CCO ?
893.68

I am curious: what mass density value has been reported for CC(=O)OCc1ccccc1 [benzyl ethanoate] + CCO ?
897.57

I am curious: what mass density value has been reported for CCOC(=O)CC(C)=O [ethyl 3-oxobutanoate] + CCO ?
875.91

I am curious: what mass density value has been reported for CCOC(=O)c1ccccc1O [ethyl 2-hydroxybenzoate] + CCO ?
933.9

I am curious: what mass density value has been reported for COC(=O)c1ccccc1 [methyl benzoate] + CCO ?
903.27

New cases:
I am curious: what mass density value has been reported for CCOC(=O)CC(C)C [ethyl 3-methylbutanoate] + CCO ?
809.39

---

experiment: xn = mol fraction of the nth substance listed; settings: 308.15 K; 100.5 kPa; Liquid; x1 = 0.7
± gives the expanded uncertainty stated by the source.
measuredMetric: mass density
Quick note: number first, unit second.

As a guide, the following entries are already answered.
I am curious: what mass density value has been reported for CCOC(=O)CC(C)C [ethyl 3-methylbutanoate] + CCO ?
838.38 ± 0.49 kg/m3

I am curious: what mass density value has been reported for CC(=O)OCc1ccccc1 [benzyl ethanoate] + CCO ?
1002.56 ± 0.21 kg/m3

I am curious: what mass density value has been reported for CCOC(=O)CC(C)=O [ethyl 3-oxobutanoate] + CCO ?
973.79 ± 0.34 kg/m3

I am curious: what mass density value has been reported for CCC(=O)OCc1ccccc1 [benzyl propanoate] + CCO ?
986.04 ± 0.27 kg/m3

I am curious: what mass density value has been reported for COC(=O)c1ccccc1 [methyl benzoate] + CCO ?
1025.64 ± 0.35 kg/m3

Below: the item to evaluate.
I am curious: what mass density value has been reported for CCOC(=O)c1ccccc1O [ethyl 2-hydroxybenzoate] + CCO ?
1066.79 ± 0.29 kg/m3

---

assay: xn = mol fraction of the nth substance listed; conditions: 318.15 K; 100.5 kPa; Liquid; Capillary tube (Ostwald / Ubbelohde) method; x1 = 0.9
Below is a list of entries, each paired with its recorded viscosity value.
Only the number, expressed in mPa·s, is required.

I am curious: what viscosity value has been reported for CCC(=O)OCc1ccccc1 [benzyl propanoate] + CCO ?
1.419

I am curious: what viscosity value has been reported for CCOC(=O)CC(C)C [ethyl 3-methylbutanoate] + CCO ?
0.556

---

experiment: xn = mol fraction of the nth substance listed; settings: 298.15 K; 100.5 kPa; Liquid; x1 = 0.85
measuredMetric: mass density (kg/m3)
Only the number, expressed in kg/m3, is required.

I am curious: what mass density value has been reported for CCC(=O)OCc1ccccc1 [benzyl propanoate] + CCO ?
1013.15

I am curious: what mass density value has been reported for CCOC(=O)CC(C)=O [ethyl 3-oxobutanoate] + CCO ?
1005.46

I am curious: what mass density value has been reported for CC(=O)OCc1ccccc1 [benzyl ethanoate] + CCO ?
1033.16

I am curious: what mass density value has been reported for CCOC(=O)CC(C)C [ethyl 3-methylbutanoate] + CCO ?
854.52

New cases:
I am curious: what mass density value has been reported for CCOC(=O)c1ccccc1O [ethyl 2-hydroxybenzoate] + CCO ?
1103.09

I am curious: what mass density value has been reported for COC(=O)c1ccccc1 [methyl benzoate] + CCO ?
1061.7

---

Below is a list of entries, each paired with its recorded mass density value.
test: xn = mol fraction of the nth substance listed; conditions: 308.15 K; 100.5 kPa; Liquid; x1 = 0.8
Numbers after ± are expanded uncertainties.
Quick note: number first, unit second.

I am curious: what mass density value has been reported for CCOC(=O)CC(C)=O [ethyl 3-oxobutanoate] + CCO ?
988.36 ± 0.36 kg/m3

I am curious: what mass density value has been reported for CCOC(=O)CC(C)C [ethyl 3-methylbutanoate] + CCO ?
842.6 ± 0.51 kg/m3

I am curious: what mass density value has been reported for CCOC(=O)c1ccccc1O [ethyl 2-hydroxybenzoate] + CCO ?
1085.02 ± 0.32 kg/m3

New cases:
I am curious: what mass density value has been reported for CC(=O)OCc1ccccc1 [benzyl ethanoate] + CCO ?
1017.13 ± 0.23 kg/m3

I am curious: what mass density value has been reported for CCC(=O)OCc1ccccc1 [benzyl propanoate] + CCO ?
998.28 ± 0.28 kg/m3

I am curious: what mass density value has been reported for COC(=O)c1ccccc1 [methyl benzoate] + CCO ?
1043.73 ± 0.4 kg/m3

---

assay: xn = mol fraction of the nth substance listed; settings: 318.15 K; 100.5 kPa; Liquid; Capillary tube (Ostwald / Ubbelohde) method; x1 = 0.5
measuredMetric: viscosity (mPa·s)
Only the number, expressed in mPa·s, is required.

As a guide, the following entries are already answered.
I am curious: what viscosity value has been reported for CC(=O)OCc1ccccc1 [benzyl ethanoate] + CCO ?
1.005

I am curious: what viscosity value has been reported for CCC(=O)OCc1ccccc1 [benzyl propanoate] + CCO ?
1.067

I am curious: what viscosity value has been reported for CCOC(=O)CC(C)C [ethyl 3-methylbutanoate] + CCO ?
0.559

New cases:
I am curious: what viscosity value has been reported for COC(=O)c1ccccc1 [methyl benzoate] + CCO ?
0.928

I am curious: what viscosity value has been reported for CCOC(=O)CC(C)=O [ethyl 3-oxobutanoate] + CCO ?
0.812

---

test: xn = mol fraction of the nth substance listed; conditions: 298.15 K; 100.5 kPa; Liquid; Capillary tube (Ostwald / Ubbelohde) method; x1 = 0.55
Lab note: anything with viscosity below 1 mPa·s is marked 1; values at 1 mPa·s or higher are marked 0.

Dear reviewer, please state whether CCC(=O)OCc1ccccc1 [benzyl propanoate] + CCO has viscosity strictly beneath 1 mPa·s.
0

Dear reviewer, please state whether CCOC(=O)CC(C)C [ethyl 3-methylbutanoate] + CCO has viscosity strictly beneath 1 mPa·s.
1

Dear reviewer, please state whether COC(=O)c1ccccc1 [methyl benzoate] + CCO has viscosity strictly beneath 1 mPa·s.
0

Dear reviewer, please state whether CC(=O)OCc1ccccc1 [benzyl ethanoate] + CCO has viscosity strictly beneath 1 mPa·s.
0

Please examine the following record next.
Dear reviewer, please state whether CCOC(=O)CC(C)=O [ethyl 3-oxobutanoate] + CCO has viscosity strictly beneath 1 mPa·s.
0

---

experiment: xn = mol fraction of the nth substance listed; settings: 308.15 K; 100.5 kPa; Liquid; x1 = 0.65
measuredMetric: mass density (kg/m3)
Only the number, expressed in kg/m3, is required.

As a guide, the following entries are already answered.
I am curious: what mass density value has been reported for CCOC(=O)CC(C)=O [ethyl 3-oxobutanoate] + CCO ?
965.77

I am curious: what mass density value has been reported for CCOC(=O)c1ccccc1O [ethyl 2-hydroxybenzoate] + CCO ?
1056.65

I am curious: what mass density value has been reported for CC(=O)OCc1ccccc1 [benzyl ethanoate] + CCO ?
994.38

I am curious: what mass density value has been reported for CCC(=O)OCc1ccccc1 [benzyl propanoate] + CCO ?
979.19

I am curious: what mass density value has been reported for CCOC(=O)CC(C)C [ethyl 3-methylbutanoate] + CCO ?
836.09

Below: the item to evaluate.
I am curious: what mass density value has been reported for COC(=O)c1ccccc1 [methyl benzoate] + CCO ?
1015.73
